The reported measurements were obtained from patent US9533999B2.

# TEST_TARGET: human KCa3.1 (Homo sapiens (Human), UniProt O15554)
# ASSAY_TEXT: KCa3.1 Assay (FLIPR thallium influx)
# SETTINGS: HEK293 cells over-expressing human KCa3.1; Tl+ influx, FLIPR dye; 15 min compound treatment
READOUT_NAME: log10 IC50 (log10 of the value in nM)

- COMPOUND: "CC(c1cccc(C(F)(F)F)c1)N1C(=O)CS(=O)(=O)c2ccc(C(=O)N(C)C)nc21 (centres unmarked) [Compound I-19]"
  READOUT_NAME: "log10 IC50"
  EXPERIMENTAL_VALUE: 3.34
- COMPOUND: "NC(=O)c1ccc2c(n1)N(Cc1ccc(Cl)c(C(F)(F)F)c1)C(=O)CS2(=O)=O [Compound I-20]"
  READOUT_NAME: "log10 IC50"
  EXPERIMENTAL_VALUE: 2.69
- COMPOUND: "COC(=O)c1ccc2c(n1)N(Cc1ccc(F)c(OC(F)(F)F)c1)C(=O)CS2(=O)=O [Compound I-18]"
  READOUT_NAME: "log10 IC50"
  EXPERIMENTAL_VALUE: 1.94
- COMPOUND: "CC(c1cccc(C(F)(F)F)c1)N1C(=O)CSc2ncsc21 (centres unmarked) [II-16]"
  READOUT_NAME: "log10 IC50"
  EXPERIMENTAL_VALUE: 2.23
- COMPOUND: "O=C1CSc2cc(Cl)cnc2N1Cc1ccc(F)c(OC(F)(F)F)c1 [II-9]"
  READOUT_NAME: "log10 IC50"
  EXPERIMENTAL_VALUE: 2.11
